System: FXR:RXRa (NR concentration 270 nM, RXRa partner concentration 90 nM)
Test description: PBM binding z-score (relative to random genomic background probes); higher = stronger binding; sequences stand for … in GC…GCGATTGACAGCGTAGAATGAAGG
Provide the reported PBM binding z-score of each item.
# answer = number (no unit)

stdin: Which PBM binding z-score is listed for `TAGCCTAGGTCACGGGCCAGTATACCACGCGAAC` ?
stdout: 5.68

stdin: Try `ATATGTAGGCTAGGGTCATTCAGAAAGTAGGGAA` next.
stdout: 3.72

stdin: Try `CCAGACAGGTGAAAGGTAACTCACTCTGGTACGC` next.
stdout: 1.02

stdin: Try `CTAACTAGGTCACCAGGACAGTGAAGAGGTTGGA` next.
stdout: 4.07

stdin: Try `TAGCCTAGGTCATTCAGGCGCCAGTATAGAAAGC` next.
stdout: 5.09

stdin: Try `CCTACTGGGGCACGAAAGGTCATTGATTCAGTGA` next.
stdout: 4.09

stdin: Try `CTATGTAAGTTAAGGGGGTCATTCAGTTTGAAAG` next.
stdout: 4.5

stdin: Try `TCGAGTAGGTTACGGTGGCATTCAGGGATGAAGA` next.
stdout: 0.0909

stdin: Try `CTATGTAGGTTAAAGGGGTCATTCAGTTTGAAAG` next.
stdout: 6.38

stdin: Try `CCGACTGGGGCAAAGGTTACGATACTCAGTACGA` next.
stdout: 1.82

stdin: Try `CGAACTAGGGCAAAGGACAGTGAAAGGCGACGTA` next.
stdout: -0.161

stdin: Try `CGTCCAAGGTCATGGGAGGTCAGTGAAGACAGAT` next.
stdout: 7.92

stdin: Try `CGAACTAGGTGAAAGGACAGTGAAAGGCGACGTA` next.
stdout: -0.276

stdin: Try `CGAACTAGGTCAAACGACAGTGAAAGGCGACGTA` next.
stdout: 4.81

stdin: Try `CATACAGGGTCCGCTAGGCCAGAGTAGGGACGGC` next.
stdout: -0.192

stdin: Try `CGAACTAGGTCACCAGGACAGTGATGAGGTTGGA` next.
stdout: 3.92

stdin: Try `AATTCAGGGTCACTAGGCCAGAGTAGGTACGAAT` next.
stdout: 6.96

stdin: Try `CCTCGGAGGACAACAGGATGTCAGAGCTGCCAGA` next.
stdout: -0.208

stdin: Try `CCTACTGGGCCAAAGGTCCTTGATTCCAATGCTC` next.
stdout: -0.0555

stdin: Try `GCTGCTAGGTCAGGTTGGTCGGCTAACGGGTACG` next.
stdout: 1.01

stdin: Try `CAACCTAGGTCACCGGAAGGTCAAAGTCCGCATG` next.
stdout: 7.05

stdin: Try `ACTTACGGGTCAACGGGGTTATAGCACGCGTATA` next.
stdout: 6.95

stdin: Try `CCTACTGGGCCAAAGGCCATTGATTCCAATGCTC` next.
stdout: -0.204

stdin: Try `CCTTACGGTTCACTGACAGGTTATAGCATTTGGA` next.
stdout: 1.66

stdin: Try `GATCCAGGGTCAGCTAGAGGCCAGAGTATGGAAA` next.
stdout: 4.42

stdin: Try `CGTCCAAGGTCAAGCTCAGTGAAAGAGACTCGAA` next.
stdout: 7.44

Data origin, for the record: the supplement of paper PMC6555819
